test system: Human GPR120 short form (Homo sapiens)
Construct: expressed in transfected cells
test method notes: Human GPR120 calcium flux assay, Procedure Calcium B (4200 cells/well)
Assay type: cell-based
property measured: EC50 (nM)

// known answers, use as guide
molecule=COc1cc(F)cc(C2=C(COc3ccc(CCC(=O)O)c(C)c3C)CCC2)c1 property_measured=EC50 value_observed=614
molecule="O=C(O)CCc1cc(F)c(OCC2=C(c3ccc(Cl)cc3)CCC2C(F)(F)F)c(F)c1 (centres unmarked)" property_measured=EC50 value_observed=288

I. Cc1c(CCC(=O)O)ccc(OCC2=C(c3ccco3)CCC2)c1C
II. CCc1ccc(C2=C(COc3c(F)cc(CCC(=O)O)cc3F)CCC2)cc1
III. O=C(O)CCc1cc(F)c(OCC2=C(c3cccc(F)c3)CC(F)(F)C2)c(F)c1
IV. O=C(O)CCc1ccc(OCC2=C(Cc3nccs3)CCC2)cc1Cl
q: // sort entries: EC50, high to low Hello, could you send the labels back in the order asked? Thank you.
a: IV, I, III, II

----------
test system: Human GPR120 short form (Homo sapiens, UniProt Q5NUL3)
Construct: expressed in transfected cells
Sequence (Q5NUL3 whole entry): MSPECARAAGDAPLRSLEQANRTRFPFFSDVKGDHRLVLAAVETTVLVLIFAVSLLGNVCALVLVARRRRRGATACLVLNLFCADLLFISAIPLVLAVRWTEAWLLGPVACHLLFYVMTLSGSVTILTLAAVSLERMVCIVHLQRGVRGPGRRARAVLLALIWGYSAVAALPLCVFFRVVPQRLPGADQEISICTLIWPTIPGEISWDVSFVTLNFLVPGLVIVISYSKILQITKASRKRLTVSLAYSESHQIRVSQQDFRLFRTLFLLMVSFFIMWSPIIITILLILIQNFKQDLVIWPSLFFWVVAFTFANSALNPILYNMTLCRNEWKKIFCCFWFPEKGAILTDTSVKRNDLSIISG
test method notes: Human GPR120 calcium flux assay, Procedure Calcium B (4200 cells/well)
Type: cell-based
pEC50: −log10 of the molar value.
property measured: pEC50

smiles_text=Cc1ccc(F)c(C2=C(COc3cc(C)c(CCC(=O)O)cc3F)CCC2)c1 test_system="Human GPR120 short form (Homo sapiens, UniProt Q5NUL3)" property_measured=pEC50 value_observed=6.13

A. Cn1cc(C2=C(COc3c(F)cc(CCC(=O)O)cc3F)CC(F)(F)CC2)cn1
B. Cc1c(CCC(=O)O)ccc(OCC2=C(c3ccccc3)CCC2)c1C
q: // max by pEC50 over [ A , B ] In your reply, give the label of the chosen option.
a: B

----------
test system: Human GPR120 short form (Homo sapiens, UniProt Q5NUL3)
Construct: expressed in transfected cells
test method notes: Human GPR120 calcium flux assay, Procedure Calcium A (2500 cells/well)
Format: cell-based
property measured: EC50 (nM)

// known answers, use as guide
compound="O=C(O)CCc1ccc(OCC2=C(c3ccc(Cl)cc3)CCCC2)cc1F [Compound 504]" property_measured=EC50 result_units=nM value_observed=2820
compound="O=C(O)CCc1ccc(OCC2=C(c3ccccc3)CCC2)cc1 [Compound 19]" property_measured=EC50 result_units=nM value_observed=1930
compound="Cc1c(CCC(=O)O)ccc(OCC2=C(c3ccc(Br)cc3)CCC2)c1C [Compound 56]" property_measured=EC50 result_units=nM value_observed=324
compound="Cc1c(CCC(=O)O)ccc(OCC2=C(c3ccccc3Cl)CCCC2)c1C [Compound 464]" property_measured=EC50 result_units=nM value_observed=1340
compound="Cc1ccc(C2=C(COc3ccc(CCC(=O)O)c(C)c3C)CCC2)cc1 [Compound 52]" property_measured=EC50 result_units=nM value_observed=173

I. O=C(O)CCc1ccc(OCC2=C(c3ccc(Cl)cc3)CCCC2)c(F)c1F [Compound 513]
II. Cc1c(CCC(=O)O)ccc(OCC2=C(c3ccncc3)CCCC2)c1C [Compound 465]
q: // max by EC50 over [ I , II ] In your reply, give the label of the chosen option.
a: II
(II: 2170 nM, I: 331 nM)

P. Cc1c(CCC(=O)O)ccc(OCC2=C(c3ccc(Cl)cc3)CCC(F)(F)C2)c1C [Compound 468]
Q. CCCc1ccc(C2=C(COc3ccc(CCC(=O)O)c(C)c3C)CCCC2)cc1 [Compound 463]
q: // max by EC50 over [ P , Q ] In your reply, give the label of the chosen option.
a: Q
(Q: 4810 nM, P: 261 nM)

----------
test system: human GPR40 (Homo sapiens, UniProt O14842)
Sequence (O14842 whole entry): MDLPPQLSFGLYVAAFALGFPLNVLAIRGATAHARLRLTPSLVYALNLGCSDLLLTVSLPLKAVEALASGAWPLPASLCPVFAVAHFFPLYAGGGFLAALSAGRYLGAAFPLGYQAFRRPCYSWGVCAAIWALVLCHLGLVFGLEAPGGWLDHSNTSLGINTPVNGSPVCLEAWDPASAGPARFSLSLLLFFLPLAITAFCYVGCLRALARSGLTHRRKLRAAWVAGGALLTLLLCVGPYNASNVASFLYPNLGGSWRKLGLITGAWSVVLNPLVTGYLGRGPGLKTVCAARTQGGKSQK
test method notes: GPR40 calcium flux assay, human GPR40
experimental parameters: HEK293 cells stably expressing GPR40; table does not say human or rat
property measured: EC50 (nM)

// known answers, use as guide
compound="O=C(O)CCc1ccc(OCC2=C(c3ccc(F)cc3)CCC2)cc1 [Compound 43]" property_measured=EC50 value_observed=3030
compound="O=C(O)CCc1ccc(OCC2=C(c3cccc(F)c3)CCC2)cc1Cl [Compound 297]" property_measured=EC50 value_observed=588
compound="Cc1ccc(C2=C(COc3cc(C)c(CCC(=O)O)cc3F)CCC2)cc1F [Compound 264]" property_measured=EC50 value_observed=1590

P. Cc1ccc(C2=C(COc3ccc(CCC(=O)O)cc3)CCC2)c(C)c1 [Compound 245]
Q. Cc1ccc(C2=C(COc3ccc(CCC(=O)O)c(Cl)c3)CCC2)c(C)c1 [Compound 246]
q: Param metric = EC50; output whichever of P , Q has the minimum value. In your reply, give the label of the chosen option.
a: Q
(Q: 358 nM, P: 1910 nM)

----------
test system: UniProt:O14842
test method notes: GPR40 calcium flux assay, human GPR40
experimental parameters: HEK293 cells stably expressing GPR40; table does not say human or rat
Measured EC50 accompanies every entry in the list below.

// known answers, use as guide
molecule=Cc1c(CCC(=O)O)ccc(OCC2=C(c3ccc(F)cc3)CC(F)(F)C2)c1C property_measured=EC50 value_observed="> 5 µM"
molecule="Cc1c(CCC(=O)O)ccc(OCC2=C(c3ccc(Cl)cc3)C(C(C)C)CCC2)c1C (stereo not drawn)" property_measured=EC50 value_observed="> 5 µM"
molecule=COc1ccc(C2=C(COc3ccc(CCC(=O)O)cc3C)CCC2)cn1 property_measured=EC50 value_observed="> 5 µM"
molecule=O=C(O)CCc1ccc(OCC2=C(C3=CCCCC3)CCC2)cc1 property_measured=EC50 value_observed="> 5 µM"
molecule=Cc1c(CCC(=O)O)ccc(OCC2=C(c3cccs3)CCC2)c1C property_measured=EC50 value_observed="> 10 µM"

# molecule "Cc1ccc(CC2=C(COc3ccc(CCC(=O)O)c(Cl)c3)CCC2)cc1" ; its EC50 = 0.057 µM

# molecule "Cc1c(CCC(=O)O)ccc(OCC2=C(c3cncs3)CCC2)c1C" ; its EC50 = > 5 µM

# molecule "Cc1ccc(CC2=C(COc3cc(C)c(CCC(=O)O)cc3F)CCC2)cc1" ; its EC50 = 0.897 µM

# molecule "Cc1cc(CCC(=O)O)ccc1OCC1=C(c2ccc(F)c(F)c2)CC(F)(F)C1" ; its EC50 = > 5 µM

----------
test system: Human GPR120 short form (Homo sapiens)
Construct: expressed in transfected cells
test method notes: Human GPR120 calcium flux assay, Procedure Calcium B (4200 cells/well)
Assay type: cell-based
pEC50: −log10 of the molar value.
property measured: pEC50

// known answers, use as guide
molecule=[2H]C([2H])([2H])c1ccc(C2=C(COc3cc(C)c(CCC(=O)O)cc3F)CCC2)cc1 value_observed=6.91
molecule=Cc1ccc(CC2=C(COc3cc(C)c(CCC(=O)O)cc3F)CCC2)cc1 value_observed=5.75
molecule=Cc1ccc(C2=C(COc3ccc(CCC(=O)O)c(Cl)c3)CCC2)c(C)c1 value_observed=5.50
molecule=Cc1c(CCC(=O)O)ccc(OCC2=C(c3ccc(F)c(F)c3)CC(F)(F)C2)c1C value_observed=7.28
molecule=COc1cc(C2=C(COc3ccc(CCC(=O)O)cc3)CCC2)ccc1C value_observed=5.81
molecule=O=C(O)CCc1cc(F)c(OCC2=C(c3ccc(Cl)c(F)c3)CCC(F)(F)C2)c(F)c1 value_observed=5.97
molecule=Cc1ccc(C2=C(COc3ccc(CCC(=O)O)cc3C)CCC2)o1 value_observed=6.52
molecule=COc1ccc(C2=C(COc3ccc(CCC(=O)O)c(C)c3C)CCC2)cn1 value_observed=6.80
molecule=O=C(O)CCc1ccc(OCC2=C(Cc3nccs3)CCC2)cc1C(F)(F)F value_observed=5.55
molecule="CC1CCC(COc2ccc(CCC(=O)O)cc2)=C1c1ccccc1 (stereo not drawn)" value_observed=6.13

A. CCCC#CC1=C(COc2ccc(CCC(=O)O)cc2)CCC1
B. Cc1c(CCC(=O)O)ccc(OCC2=C(c3cc(Cl)cc(Cl)c3)CCC2)c1C
q: Param metric = pEC50; output whichever of A , B has the minimum value. In your reply, give the label of the chosen option.
a: B
(B: 5.51, A: 6.12)

I. O=C(O)CCc1cc(F)c(OCC2=C(c3ccc(F)cc3F)CC(F)(F)C2)c(F)c1
II. O=C(O)CCc1ccc(OCC2=C(c3ccc(F)cc3)CC(F)C2)cc1C(F)(F)F (stereo not drawn)
III. Cc1c(CCC(=O)O)ccc(OCC2=C(c3cccnc3)CCC2)c1C
q: // sort entries: pEC50, high to low Hello, could you send the labels back in the order asked? Thank you.
a: I, III, II
(I: 7.12, III: 6.63, II: 6.34)

----------
test system: Human GPR120 short form (Homo sapiens, UniProt Q5NUL3)
Construct: expressed in transfected cells
test method notes: Human GPR120 calcium flux assay, Procedure Calcium B (4200 cells/well)
Format: cell-based
property measured: EC50 (nM)

A. O=C(O)CCc1ccc(OCC2=C(C3=CCCCC3)CCC2)cc1 [Compound 230]
B. Cc1c(CCC(=O)O)ccc(OCC2=C(c3ccc(Cl)cc3)CC(F)(F)C2)c1C [Compound 137]
C. O=C(O)CCc1ccc(OCC2=C(C3C=CCC3)CCC2)cc1C(F)(F)F (stereo not shown) [Compound 453]
D. O=C(O)CCc1ccc(OCC2=C(C3(F)CCC3)CC(F)(F)C2)cc1C(F)(F)F [Compound 429]
q: Rank ascending by EC50. Hello, could you send the labels back in the order asked? Thank you.
a: B, C, D, A

FYI, the data here is from patent US11230526B1.
